experiment: NCI Yeast Anticancer Drug Screen. Data for the rad50 strain (AID 155);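 note: 0% = growth of vehicle-only cultures of the same strain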
protocol conditions: S. cerevisiae rad50 strain growth inhibition; at 50.0 µM (retest, dose inferred, filed as 5.0); hits give high values
This is part of a sample that, as a whole, favours compounds with a hit. Of some 79,000 tested, about 15% had one in any assay.
metric: growth inhibition (%)

1) S=C(N/N=C/c1ccccn1)N1CCCCC1 | 98
2) O=S(=O)(Nc1ccccc1)c1ccccc1C#Cc1ccccc1 | 91
3) CC(O[Si](C)(C)C(C)(C)C)C(=O)Sc1ccccn1 (configuration not stated) | 66
4) C=CCNC(=O)NC(=O)CSC1=NNC2(C(=O)N1)c1ccccc1-c1ccccc12 | 74
5) CN(C)C1CCC2C3CCC4=CC(=O)CCC4(C)C3CCC21C (configuration not stated) | 28
6) O=C(C[N+]1(CCc2ccccc2)CCOCC1)c1ccc(-c2ccccc2)cc1 | 52
7) CC1CCCN(c2cc(N(C)C)c([N+](=O)[O-])cc2F)C1 (configuration not stated) | 47
8) OCCN=Cc1cccs1 | 3
9) O=C1/C(=C/c2ccc(Cl)c(Cl)c2)CN(C(=O)CCN2CCOCC2)C/C1=C\c1ccc(Cl)c(Cl)c1 | 86
10) O=C(Nc1cccc(C(F)(F)F)c1)c1cc(Br)cc(Br)c1O | 87
11) Cc1csc(N)[n+]1CCC(=O)[O-] | -3
12) CC(C)N=Cc1cc(I)cc(I)c1O.CC(C)N=Cc1cc(I)cc(I)c1O.[Co] | 99
